The values you see were collected from ChEMBL document CHEMBL3988442.

- System Tested: AMP-activated protein kinase, AMPK (Homo sapiens) (UniProt P54646+O43741+P54619+Q9UGJ0+Q9Y478+Q13131+Q9UGI9)
- Assay Overview: AMP-dependent Kinase enzyme assay. An in vitro enzyme assay that detects ADP turnover that is directly proportional to AMPK activity. This uses naive AMPK that is activated during the assay with MK-8722
- Format: functional
- Design: scale not given: direction of the effect not stated beside the values
- Run Parameters: 30 µM
Reported Metric: Percent Effect (%)
# value in %; strip the unit string

Exercise: Bench note: what Percent Effect did `Cc1ncnc2c1CCN(Cc1cccs1)CC2` show?
Solution: 10

Exercise: Percent Effect lookup needed for `N#Cc1cc(NC(=O)c2ccccc2)ccc1N1CCC(O)CC1` , thanks.
Solution: -7.93

Exercise: Item `Cn1cc(CNc2ncnc3c2CCN(Cc2ccsc2)CC3)cn1` has what recorded Percent Effect?
Solution: -5.59

Exercise: Name the reported Percent Effect value associated with the molecule `CCN1CCN(C(=O)c2nc(C)n(-c3ccccc3Cl)n2)CC1`
Solution: -2.25

Exercise: Please look up its Percent Effect: `CCc1nnc(CN2CCN(C(=O)c3cc4ccccc4[nH]3)CC2)o1`
Solution: 2.79

Exercise: Entry under review: Cc1nc(CN2CCCC(NCc3c(C)nc4sccn34)C2)no1 (stereo unspecified) . Reported Percent Effect?
Solution: -2.06

---

Please provide measured Percent Effect for the entries that follow.
- System Tested: Chromo domain-containing protein 1 (Saccharomyces cerevisiae (strain ATCC 204508 / S288c) (Baker's yeast)) (UniProt P32657)
- Sequence (P32657 whole entry, the tested form may be a part): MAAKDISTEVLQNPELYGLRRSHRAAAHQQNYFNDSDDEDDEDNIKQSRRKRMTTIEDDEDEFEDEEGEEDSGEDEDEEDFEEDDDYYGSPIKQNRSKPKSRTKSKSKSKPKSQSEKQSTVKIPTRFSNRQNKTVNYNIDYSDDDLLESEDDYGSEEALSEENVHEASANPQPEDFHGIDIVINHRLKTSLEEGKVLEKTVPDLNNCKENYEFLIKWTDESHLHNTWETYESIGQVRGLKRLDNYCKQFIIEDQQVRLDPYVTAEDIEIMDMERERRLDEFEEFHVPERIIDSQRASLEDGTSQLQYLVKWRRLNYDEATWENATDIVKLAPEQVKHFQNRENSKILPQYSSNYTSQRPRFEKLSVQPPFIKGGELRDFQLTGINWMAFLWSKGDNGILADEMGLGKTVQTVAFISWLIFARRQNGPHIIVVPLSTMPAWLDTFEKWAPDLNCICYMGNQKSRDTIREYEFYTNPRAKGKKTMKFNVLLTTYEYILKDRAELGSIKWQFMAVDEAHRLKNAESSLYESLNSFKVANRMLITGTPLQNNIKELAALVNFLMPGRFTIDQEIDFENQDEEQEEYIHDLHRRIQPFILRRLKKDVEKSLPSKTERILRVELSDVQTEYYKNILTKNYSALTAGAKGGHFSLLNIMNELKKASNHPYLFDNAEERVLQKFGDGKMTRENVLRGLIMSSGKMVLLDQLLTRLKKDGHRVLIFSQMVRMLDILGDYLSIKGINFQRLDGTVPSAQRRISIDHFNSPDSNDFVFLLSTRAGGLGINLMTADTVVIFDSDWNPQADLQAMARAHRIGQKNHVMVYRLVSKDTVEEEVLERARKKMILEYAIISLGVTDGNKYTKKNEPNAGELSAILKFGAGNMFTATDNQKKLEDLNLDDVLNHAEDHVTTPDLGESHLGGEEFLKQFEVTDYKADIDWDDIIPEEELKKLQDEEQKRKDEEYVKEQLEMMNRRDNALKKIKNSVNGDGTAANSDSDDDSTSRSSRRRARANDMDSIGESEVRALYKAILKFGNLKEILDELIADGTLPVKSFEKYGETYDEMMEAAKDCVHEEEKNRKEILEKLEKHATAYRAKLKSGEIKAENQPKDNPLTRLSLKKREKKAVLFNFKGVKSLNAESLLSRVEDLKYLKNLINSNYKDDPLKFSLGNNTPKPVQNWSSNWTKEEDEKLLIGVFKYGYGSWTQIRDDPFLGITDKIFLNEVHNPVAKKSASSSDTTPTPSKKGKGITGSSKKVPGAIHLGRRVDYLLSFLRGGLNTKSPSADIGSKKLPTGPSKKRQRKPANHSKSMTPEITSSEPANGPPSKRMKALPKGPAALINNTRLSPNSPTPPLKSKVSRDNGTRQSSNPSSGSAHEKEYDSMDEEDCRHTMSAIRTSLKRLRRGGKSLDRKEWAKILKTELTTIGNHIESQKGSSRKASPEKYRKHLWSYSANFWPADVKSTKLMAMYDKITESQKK
- Assay Overview: ScCHD-1 Enzyme Inhibition Assay; note: in the data most compounds retested in dose-response had high values
- Format: functional
- Design: scale not given: direction of the effect not stated beside the values
- Run Parameters: 30 µM
Just the number please, in %, no unit attached.

Exercise: Data request, read-out Percent Effect, for CCS(=O)(=O)N1CCOC2(CCCN(c3ccc(C)nn3)C2)C1 (stereo not drawn)
Solution: 0.0361

Exercise: Which value of Percent Effect has been reported for CC(C)c1noc(C(C)N2CCN(CCN3CCCC3=O)CC2)n1 (stereo not drawn) in the records?
Solution: 0.594

Exercise: Could you share which Percent Effect value was measured for Cc1ccc(NC2CCN(C(=O)CC3CCCO3)CC2)nn1 (stereo not drawn) ?
Solution: 0.857

Exercise: Which measured Percent Effect value corresponds to Cc1nc(CN(C)C2CCN(Cc3sc(C)nc3C)C2)no1 (stereo not drawn) ?
Solution: -3.08

Exercise: Look up Percent Effect for this molecule: Cc1cc(C)n(C2CN(CC(O)COc3ccc(F)cc3)C2)n1 (stereo not drawn)
Solution: -2.37

Exercise: So what does the record say about Percent Effect for `CCc1nnc(CN(C)c2nc(C(C)C)nc3c2cnn3C)o1` ?
Solution: 1.23

Exercise: Need Percent Effect of CN(Cc1cccc(F)c1)C(=O)CN1CCCC1CCc1ccccc1 (stereo not drawn) , thanks.
Solution: 113

Exercise: // returns reported Percent Effect for input COCc1nc2n(n1)CCCC2Nc1nc(C2CC2)ns1 (stereo not drawn)
Solution: -5.92

Exercise: Fill in: Percent Effect of `CN(C)S(=O)(=O)N1C[C@H](Oc2cccnc2)[C@H]2OCCC[C@H]21` is ___
Solution: -8.75

Exercise: Using the record for CC(C)N(C)C(=O)C1=NOC2(CCN(C(=O)c3ccc(Cl)cc3)C2)C1 (stereo not drawn) , report its Percent Effect.
Solution: -3.93

Exercise: // lookup Percent Effect for CC(NC(=O)C1=NN(C)C(=O)CC1)c1ccc(F)cc1F (stereo not drawn)
Solution: -6.12

Exercise: What value of Percent Effect has been reported for the following molecule? CS(=O)(=O)N1Cc2nccn2CC(Cn2ncccc2=O)C1 (stereo not drawn)
Solution: -4.85

Exercise: For the molecule `Cc1cc(NC(=O)NCc2ccccn2)n(C)n1` , what Percent Effect is on record?
Solution: -12.3

Exercise: Tell me the measured Percent Effect of `CC(C)N(C)Cc1nnc2n1CCN(Cc1ccncc1)CC2` , please.
Solution: -6.5

Exercise: Please give the measured Percent Effect for this molecule: CS(=O)(=O)CCN1CCC2(CCCN(C3CCOCC3)C2=O)C1 (stereo not drawn)
Solution: -0.555

Exercise: # input molecule: CN(Cc1ccco1)C(=O)C1CSCN1C(=O)c1cccnc1 (stereo not drawn) ; wanted: its Percent Effect
Solution: -0.736

Exercise: What does the record list as Percent Effect for `Cn1nc(CNC(=O)NCc2ccc(Cl)cc2)c2c1CCOC2` ?
Solution: -5.33

Exercise: May I ask what Percent Effect has been recorded for CN1CCOC(CNCc2nc(-c3ccccc3)cs2)C1 (stereo not drawn) ?
Solution: 4.02

Exercise: I am curious: what Percent Effect value has been reported for `O=C(NCC1CC1)[C@H]1C[C@@H]2CCN(Cc3nccs3)C[C@@H]2O1` ?
Solution: 2.01

Exercise: What value of Percent Effect has been reported for the following molecule? COc1ccccc1OCCC(=O)N1CCCC1Cn1cc(C)cn1 (stereo not drawn)
Solution: -6.89

Exercise: Item under review: COc1ccccc1CC1CCCN(CC(N)=O)C1 (stereo not drawn) . Reported Percent Effect?
Solution: -6.07

Exercise: What value of measured Percent Effect is listed for `CC(C)Nc1ncnc2c1CCN(C(=O)Cc1ccccn1)CC2` ?
Solution: -11

Exercise: # query: Percent Effect of entry `Cc1cc(-c2cnn(CCNC(=O)c3cccnc3)c2C2CC2)on1`
Solution: 1.21

Exercise: # get_value(readout='Percent Effect', item= `CNC(=O)[C@@]12CCC3(CCN(S(C)(=O)=O)CC3)[C@@H]1CN(S(C)(=O)=O)C2` )
Solution: 1.21

Exercise: What value of Percent Effect has been reported for the following molecule? COCCCN1CCCN(C(C)C(=O)Nc2cccc(I)c2)CC1 (stereo not drawn)
Solution: -0.402

Exercise: Look up Percent Effect for this molecule: `Cc1nc(C2CCN(C(=O)c3cccnc3)CC2)c2sccn12`
Solution: -6.97

Exercise: Fill blank: measured Percent Effect of the molecule `COc1ccc(CNC(=O)CNc2cc3c(cc2Cl)OCCCO3)cc1` is ____.
Solution: -1.22

Exercise: Given the entry O=C(CCCOCc1ccccc1)N1CCCC1c1ccccn1 (stereo not drawn) , report its measured Percent Effect.
Solution: -2.69

Exercise: Need Percent Effect, item Cc1nc(CN2CCCC(N(C)CCc3cccs3)C2)no1 (stereo not drawn)
Solution: -2.19

Exercise: Entry Cc1cc(CN2CCN(C(=O)NC(C)Cn3ccnc3)CC2)no1 (stereo not drawn) : reported Percent Effect = ?
Solution: -4.96

Exercise: What value of Percent Effect has been reported for the following molecule? `Cn1cnnc1S(=O)(=O)C1CCN(S(=O)(=O)c2c(Cl)cccc2Cl)CC1`
Solution: 0.0853

Exercise: Given the entry Cc1nc(CN2CCC3(CCN(c4ncc(F)cn4)C3)C2=O)cs1 (stereo not drawn) , report its measured Percent Effect.
Solution: -9.48

Exercise: What value of Percent Effect has been reported for the following molecule? `Cn1cc(C(=O)NC2CCN(C(=O)NCCSC(F)(F)F)CC2)cn1`
Solution: -19.9

Exercise: For `COc1ccnc(N2CCN(C(=O)c3cnn(C)c3C3CC3)CC2)n1` , what is its reported Percent Effect?
Solution: -13.1

Exercise: Return reported Percent Effect; argument: CC1=Nc2c(c(=O)[nH]n2C(C)C)C(c2ccccc2)S1 (stereo not drawn)
Solution: -3.79

Exercise: # input molecule: `Cc1ccoc1-c1nnc(CNCCn2cccn2)o1` ; wanted: its Percent Effect
Solution: -15.5

Exercise: State the recorded Percent Effect for this entry: `Cc1cccc(C(=O)NCc2ccc(S(N)(=O)=O)cc2)n1`
Solution: -6.84

Exercise: Which Percent Effect reading was recorded for the molecule CN(c1ccncn1)C1CC2(CCN(C(=O)c3cccs3)C2)C1 (stereo not drawn) ?
Solution: -17.8

Exercise: Quick check: Percent Effect of `c1ccc(-c2nnc(CNCCn3cccn3)o2)cc1` ?
Solution: -8.2

Exercise: Which value of Percent Effect has been reported for `CCN(CC)c1ccc(NS(=O)(=O)c2cnn(C)c2)cn1` in the records?
Solution: -5.08

Exercise: Quick check: Percent Effect of O=C(c1cccc(F)c1)N1CCOC(c2nc(-c3ncccn3)no2)C1 (stereo not drawn) ?
Solution: -2.27

Exercise: Value lookup for Percent Effect; key = COc1cccc(COCC(O)CN2CC(n3cccn3)C2)c1 (stereo not drawn)
Solution: -12.6

Exercise: Reported Percent Effect, molecule Cc1cnc(CN(C)C2CCN(CC(=O)N(C)c3nccs3)C2)o1 (stereo not drawn) : ____
Solution: -6.37

Exercise: I am curious: what Percent Effect value has been reported for CCOCCOC(C)C(=O)NCc1cn2cc(Br)ccc2n1 (stereo not drawn) ?
Solution: -1.5

Exercise: Which measured Percent Effect value corresponds to `Nc1ncc2c(n1)CN(C1CCCC1)C2=O` ?
Solution: 121

Exercise: Request the reported Percent Effect associated with `COc1ccccc1CC(=O)NS(=O)(=O)c1ccc(C(N)=O)cc1`
Solution: -0.229

Exercise: Which Percent Effect value belongs to `CC(C)c1ncc2c(n1)CN(Cc1nc(Cc3ccccc3)no1)CC2` ?
Solution: 0.435

Exercise: Data request, read-out Percent Effect, for Cc1cc(C2CCCN(CCCNS(C)(=O)=O)C2)n[nH]1 (stereo not drawn)
Solution: -0.769
